- experimentalSystem: Alpha-glucosidase (Saccharomyces cerevisiae S288c, UniProt P53341+P38158+P07265)
- assayRemarks: Inhibition of Saccharomyces cerevisiae Alpha-glucosidase using p-NPG as substrate and measured after 10 mins
- Assay type: protein assay
valueType: IC50 (µM)

Example compounds with recorded IC50:
c1ccc(-c2ccc(CSc3nnc(-c4cc5c([nH]c6ccccc65)c(-c5ccccc5)n4)o3)cc2)cc1 = 4.32
Clc1cccc(CSc2nnc(-c3cc4c([nH]c5ccccc54)c(-c4ccccc4)n3)o2)c1 = 12.71
FC(F)(F)c1cccc(CSc2nnc(-c3cc4c([nH]c5ccccc54)c(-c4ccccc4)n3)o2)c1 = 12.25
CC(C)(C)c1ccc(CSc2nnc(-c3cc4c([nH]c5ccccc54)c(-c4ccccc4)n3)o2)cc1 = 4.95
CS(=O)(=O)c1ccc(CSc2nnc(-c3cc4c([nH]c5ccccc54)c(-c4ccccc4)n3)o2)cc1 = 6.15

I. c1ccc(-c2cccc(CSc3nnc(-c4cc5c([nH]c6ccccc65)c(-c5ccccc5)n4)o3)c2)cc1
II. O=[N+]([O-])c1cccc(CSc2nnc(-c3cc4c([nH]c5ccccc54)c(-c4ccccc4)n3)o2)c1
// pick larger IC50 from pair: I vs II Select an item and report its label.
II
